target: USP24 (UniProt Q9UPU5); assay: log2 ratio of Biotin-Ahx-Ub-VS probe labelling (fragment/DMSO); higher = less target engagement (more negative = stronger competition), active = hit call of the paper (q ≤ 0.05, log2 ratio ≤ -1); details: compound concentration: 200 uM; treatment time: 3 h
Sequence (Q9UPU5 whole entry, the tested form may be a part): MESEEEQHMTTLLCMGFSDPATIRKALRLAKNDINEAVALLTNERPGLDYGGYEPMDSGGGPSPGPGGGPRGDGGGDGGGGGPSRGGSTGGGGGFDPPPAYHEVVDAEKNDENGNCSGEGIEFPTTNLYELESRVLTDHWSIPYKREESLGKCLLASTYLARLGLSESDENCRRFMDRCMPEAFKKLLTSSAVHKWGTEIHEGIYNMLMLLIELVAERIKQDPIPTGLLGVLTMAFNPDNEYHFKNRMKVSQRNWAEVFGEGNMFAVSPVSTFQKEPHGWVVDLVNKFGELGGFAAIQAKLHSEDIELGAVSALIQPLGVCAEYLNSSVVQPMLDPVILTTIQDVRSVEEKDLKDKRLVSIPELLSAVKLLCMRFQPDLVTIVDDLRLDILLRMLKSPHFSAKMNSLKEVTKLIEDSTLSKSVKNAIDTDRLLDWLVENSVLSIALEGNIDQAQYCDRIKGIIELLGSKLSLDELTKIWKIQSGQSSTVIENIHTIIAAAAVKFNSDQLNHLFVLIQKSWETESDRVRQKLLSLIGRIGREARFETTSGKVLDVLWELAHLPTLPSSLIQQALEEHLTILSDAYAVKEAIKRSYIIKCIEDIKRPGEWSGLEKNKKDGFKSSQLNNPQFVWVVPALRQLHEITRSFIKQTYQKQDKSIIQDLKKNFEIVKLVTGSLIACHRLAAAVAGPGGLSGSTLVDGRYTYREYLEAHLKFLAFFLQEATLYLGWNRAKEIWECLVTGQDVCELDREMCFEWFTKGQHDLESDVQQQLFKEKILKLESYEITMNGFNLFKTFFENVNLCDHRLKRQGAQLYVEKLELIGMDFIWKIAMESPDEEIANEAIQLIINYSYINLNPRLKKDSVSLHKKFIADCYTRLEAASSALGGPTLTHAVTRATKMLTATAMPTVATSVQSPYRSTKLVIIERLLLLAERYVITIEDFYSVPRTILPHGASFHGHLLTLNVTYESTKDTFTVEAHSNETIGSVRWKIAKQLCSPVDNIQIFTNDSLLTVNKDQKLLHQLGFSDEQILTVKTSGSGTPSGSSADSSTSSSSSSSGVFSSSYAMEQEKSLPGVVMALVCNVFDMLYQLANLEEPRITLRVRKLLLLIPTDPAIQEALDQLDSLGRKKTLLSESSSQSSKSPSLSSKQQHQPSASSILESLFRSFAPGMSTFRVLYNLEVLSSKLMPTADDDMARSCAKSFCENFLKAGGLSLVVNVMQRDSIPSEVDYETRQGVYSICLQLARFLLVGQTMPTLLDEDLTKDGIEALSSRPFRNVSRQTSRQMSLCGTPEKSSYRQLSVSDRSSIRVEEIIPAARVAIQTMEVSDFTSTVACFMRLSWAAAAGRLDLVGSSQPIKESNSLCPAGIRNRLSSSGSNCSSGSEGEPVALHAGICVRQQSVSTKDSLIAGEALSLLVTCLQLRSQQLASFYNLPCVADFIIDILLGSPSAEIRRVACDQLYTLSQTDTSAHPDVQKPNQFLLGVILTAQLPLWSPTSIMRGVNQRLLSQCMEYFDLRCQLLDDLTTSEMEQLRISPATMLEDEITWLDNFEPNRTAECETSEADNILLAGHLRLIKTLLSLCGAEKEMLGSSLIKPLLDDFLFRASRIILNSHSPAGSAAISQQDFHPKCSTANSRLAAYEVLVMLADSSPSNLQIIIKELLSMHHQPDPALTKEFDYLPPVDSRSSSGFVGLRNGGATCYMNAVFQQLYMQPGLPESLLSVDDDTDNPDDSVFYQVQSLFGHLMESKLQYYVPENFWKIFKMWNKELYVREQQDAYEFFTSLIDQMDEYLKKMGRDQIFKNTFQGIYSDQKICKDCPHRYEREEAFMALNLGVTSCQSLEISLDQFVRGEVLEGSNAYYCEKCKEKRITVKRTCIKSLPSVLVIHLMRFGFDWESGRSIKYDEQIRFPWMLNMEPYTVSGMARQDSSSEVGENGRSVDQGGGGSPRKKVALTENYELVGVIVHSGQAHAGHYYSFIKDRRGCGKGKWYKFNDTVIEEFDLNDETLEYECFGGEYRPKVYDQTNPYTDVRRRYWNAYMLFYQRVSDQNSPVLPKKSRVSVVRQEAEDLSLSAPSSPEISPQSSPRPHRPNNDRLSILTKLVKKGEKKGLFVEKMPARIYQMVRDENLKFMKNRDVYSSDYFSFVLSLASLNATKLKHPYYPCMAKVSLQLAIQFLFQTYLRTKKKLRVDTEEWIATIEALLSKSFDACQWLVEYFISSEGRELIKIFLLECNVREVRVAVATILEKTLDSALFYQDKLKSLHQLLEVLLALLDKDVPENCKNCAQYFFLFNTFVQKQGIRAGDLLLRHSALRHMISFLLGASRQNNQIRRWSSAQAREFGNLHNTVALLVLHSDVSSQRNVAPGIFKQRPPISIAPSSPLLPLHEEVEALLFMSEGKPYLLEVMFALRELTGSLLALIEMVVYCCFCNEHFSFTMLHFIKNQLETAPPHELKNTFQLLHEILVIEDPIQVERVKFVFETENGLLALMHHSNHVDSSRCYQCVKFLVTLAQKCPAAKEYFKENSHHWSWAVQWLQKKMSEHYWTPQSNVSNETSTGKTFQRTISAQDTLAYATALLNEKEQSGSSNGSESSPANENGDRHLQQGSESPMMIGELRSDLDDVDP
Catalogue of log2 ratio of Biotin-Ahx-Ub-VS probe labelling readings, one per entry.
Form: value (number only, do not type unit).

Entry `C/C(=C\CNC(=O)CCl)c1cnn(C)c1.Cl` , log2 ratio of Biotin-Ahx-Ub-VS probe labelling reported as -0.203

log2 ratio of Biotin-Ahx-Ub-VS probe labelling reported for this compound `O=C(CCl)N1CCC(C(=O)N2CCCCCC2)CC1` : -0.141

log2 ratio of Biotin-Ahx-Ub-VS probe labelling reading for `Cc1cccc(NC(=O)CCl)c1C` : -0.573

// recorded log2 ratio of Biotin-Ahx-Ub-VS probe labelling for NC(=O)C(Cc1ccccc1)NC(=O)CCl (centres undefined) : -0.0605
